All figures here come from PubChem BioAssay (NCI).

growth overview
- Test system: CCRF-CEM leukemia
- PROCEDURE_TEXT: NCI-60 one-dose screen, 48 h (100 = growth as untreated, 0 = no growth, -100 = all killed)
- TEST_CONTEXT: 10 µM unless noted
This is part of a sample that, as a whole, favours compounds with a hit. Of some 83,000 tested, about 20% had one in any assay.

COMPOUND: CN1C(=O)N(C)C2C1NN=c1s/c(=C\c3cccnc3)c(=O)n12 (stereo not given)
growth / %: 79.8
//
COMPOUND: CN(C[C@H]1Cc2c(cccc2N2CCN(c3ncccn3)CC2)CN1)[C@H]1CCCc2cccnc21
growth / %: 22.4
//
COMPOUND: c1ccc(-c2cn(-c3ccccc3)c(-c3ccccc3)n2)cc1
growth / %: -25.8
//
COMPOUND: CCN(CC)CCOC(=O)C(c1ccccc1)(c1ccccc1)C(C)C
growth / %: 86.4
//
COMPOUND: NC(N)=Nc1nc2ccccc2o1
growth / %: 80.1
//
COMPOUND: Cc1ccc2nc(-c3cc4c([nH]c5ccccc54)c(-c4ccc(F)c(F)c4)n3)[nH]c2c1
growth / %: 16.8
//
COMPOUND: Cc1nc2ncccc2nc1Nc1ccc(S(=O)(=O)Nc2ccccn2)cc1
growth / %: 107
//
COMPOUND: COc1ccc2c(c1)[nH]c(=O)c1c3cc(OC)ccc3cn21
growth / %: -58.8
//
COMPOUND: FC(F)(F)c1ccccc1-c1cn2c(ccc3ccccc32)n1
growth / %: 78.6
//
COMPOUND: NC1N=C(SCC(=O)N2CCN(c3cc4c(cc3F)c(=O)c(C(=O)O)cn4C3CC3)CC2)NC(=O)/C1=C/c1ccc(Cl)cc1 (stereo not given)
growth / %: 107

---

- Tested on: MALME-3M melanoma
- PROCEDURE_TEXT: NCI-60 one-dose screen, 48 h
- TEST_CONTEXT: 10 µM unless noted
The panel holds about 83,000 compounds, 20% with a hit somewhere; the sample as a whole holds those more often. Activity calls are given as the source filed them. Rule for the calls: active = growth percent below 10; inactive = the rest.
Outcome codes: active, inactive

COMPOUND: COc1cc(-c2nc(-c3nc4ccc(Cl)cc4[nH]3)cc3c2[nH]c2ccccc23)cc(OC)c1OC
LABEL_CLASS: inactive

COMPOUND: O=C1c2ccccc2-c2ccccc2C1(Cl)Cl
LABEL_CLASS: active

COMPOUND: C=C1CCC2C3(C)COC(c4ccccc4)OC3CCC2(C)C1/C=C/C1=CCOC1=O (stereo not given)
LABEL_CLASS: inactive

COMPOUND: CN1CCN(CCCOc2ccc3nc(Nc4ccc(Cl)c(C(F)(F)F)c4)ccc3c2)CC1
LABEL_CLASS: inactive

COMPOUND: CCCCN(CCCC)C(=O)CC
LABEL_CLASS: inactive

COMPOUND: COc1ccc(OC)c(C2OC(c3ccc4ccccc4c3O)=NN2C(C)=O)c1 (stereo not given)
LABEL_CLASS: inactive

COMPOUND: CC(C)(C)n1cc(-c2ccnc(NCCCNS(=O)(=O)c3ccc(C(F)(F)F)cc3)c2)c(-c2cccc(O)c2)n1
LABEL_CLASS: active

COMPOUND: O=C(CSc1nc2ccccc2[nH]1)Nc1ccc(-c2nc3ccccc3s2)c(Cl)c1
LABEL_CLASS: active

COMPOUND: COc1ccc(/C=C2\N=C(c3ccccc3)N(C(=O)c3ccccc3O)NC2=O)cc1
LABEL_CLASS: inactive

COMPOUND: O=[N+]([O-])c1ccc(-c2cn(-c3ccccc3)c(-c3ccccc3)n2)cc1
LABEL_CLASS: inactive

---

- System: OVCAR-5 ovarian
- PROCEDURE_TEXT: NCI-60 one-dose screen, 48 h
- TEST_CONTEXT: 10 µM unless noted
Compounds without any hit were thinned out: in the full panel of roughly 83,000, 20% have a hit. Active and inactive are the calls of the source. How the source made its calls: active means growth percent below 10; inactive means the rest.
Outcome codes: active, inactive

MOLECULE: N#C/C(=C1C=C/C(=N/O)C(Cl)=C/1)c1ccc(Cl)cc1
TESTED_ON: OVCAR-5 ovarian
LABEL_CLASS: inactive

MOLECULE: O=[N+]([O-])c1ccc(/C=C/C2(CCl)OCCO2)cc1
TESTED_ON: OVCAR-5 ovarian
LABEL_CLASS: inactive

MOLECULE: Cc1cc(N)n(S(=O)(=O)c2oc(-c3ccccc3)nc2C#N)n1
TESTED_ON: OVCAR-5 ovarian
LABEL_CLASS: inactive

MOLECULE: CCCCN(CCCC)c1ccc(C(=N)c2ccc(N(CCCC)CCCC)cc2)cc1
TESTED_ON: OVCAR-5 ovarian
LABEL_CLASS: active

MOLECULE: CCCCCCCCCCCCNC(=O)[C@H]1CSC(c2cc3ccccc3s2)N1 (stereo partly drawn)
TESTED_ON: OVCAR-5 ovarian
LABEL_CLASS: inactive

MOLECULE: CCCCCCN1CSC(=S)N(CCCCCC)C1
TESTED_ON: OVCAR-5 ovarian
LABEL_CLASS: inactive

MOLECULE: C=C(C)[C@@H]1C[C@@H]2Cc3cc(F)ccc3N1O2
TESTED_ON: OVCAR-5 ovarian
LABEL_CLASS: inactive

MOLECULE: CCCCN(CCCC)C(=O)CC
TESTED_ON: OVCAR-5 ovarian
LABEL_CLASS: inactive

MOLECULE: Oc1ccc2cc(Br)ccc2c1-c1c(O)ccc2cc(Br)ccc12
TESTED_ON: OVCAR-5 ovarian
LABEL_CLASS: inactive

MOLECULE: CN(C)c1oc(C2OC2c2ccccc2)nc1C#N (stereo not drawn)
TESTED_ON: OVCAR-5 ovarian
LABEL_CLASS: inactive

MOLECULE: CCN(CC)CCC(CNc1c2ccc(Cl)cc2nc2ccc(OC)cc12)c1ccccc1 (stereo not drawn)
TESTED_ON: OVCAR-5 ovarian
LABEL_CLASS: active

MOLECULE: C=C(C)[C@@H]1CC[C@]2(C(=O)N3CCNCC3)CC[C@]3(C)[C@H](CC[C@@H]4[C@@]5(C)C/C(=C/c6ccncc6)C(=O)C(C)(C)[C@@H]5CC[C@]43C)[C@@H]12
TESTED_ON: OVCAR-5 ovarian
LABEL_CLASS: inactive

MOLECULE: O=[N+]([O-])c1cccc(-c2nc3sccn3c2-c2ccnc(NCCCNS(=O)(=O)c3ccc(Cl)cc3)n2)c1
TESTED_ON: OVCAR-5 ovarian
LABEL_CLASS: inactive

MOLECULE: O=C(Nc1ccc2c(c1)OCCO2)C(=O)c1c[nH]c2ccccc12
TESTED_ON: OVCAR-5 ovarian
LABEL_CLASS: inactive

MOLECULE: Cc1ccc(Nc2nnc(-c3ccc(Cl)cc3)o2)c(C)c1
TESTED_ON: OVCAR-5 ovarian
LABEL_CLASS: inactive

MOLECULE: O=C(CN1CCN(c2cc3c(cc2F)c(=O)c(C(=O)N/N=C/c2ccccc2O)cn3C2CC2)CC1)N/N=C\c1ccccc1O
TESTED_ON: OVCAR-5 ovarian
LABEL_CLASS: inactive

MOLECULE: O=C(NCc1cn(Cc2cccc(Oc3ccccc3)c2)nn1)c1cccnc1Nc1ccc(F)cc1
TESTED_ON: OVCAR-5 ovarian
LABEL_CLASS: inactive

MOLECULE: O=C(O)Cc1cccc(=O)c(O)c1C(=O)O
TESTED_ON: OVCAR-5 ovarian
LABEL_CLASS: inactive

MOLECULE: CC(C)(C)n1cc(-c2ccnc(NCCCNS(=O)(=O)c3ccccc3)c2)c(-c2cccc(O)c2)n1
TESTED_ON: OVCAR-5 ovarian
LABEL_CLASS: inactive

MOLECULE: O=C([O][Sn]([O]C(=O)c1ccccn1)([c]1ccccc1)[c]1ccccc1)c1ccccn1
TESTED_ON: OVCAR-5 ovarian
LABEL_CLASS: inactive

MOLECULE: COc1cc2c(c(OC)c1OC)-c1ccc(N)c(=O)cc1[C@@H](NC(C)=O)CC2
TESTED_ON: OVCAR-5 ovarian
LABEL_CLASS: inactive

MOLECULE: COc1cc(-c2nc(-c3nc4ccc(Cl)cc4[nH]3)cc3c2[nH]c2ccccc23)cc(OC)c1OC
TESTED_ON: OVCAR-5 ovarian
LABEL_CLASS: inactive

MOLECULE: COc1cc(-c2nn(-c3cccc(NC(=O)Nc4cc(C(F)(F)F)cc(C(F)(F)F)c4)c3)cc2-c2ccncc2)ccc1Cl
TESTED_ON: OVCAR-5 ovarian
LABEL_CLASS: inactive

---

- System: NCI-H322M lung
- PROCEDURE_TEXT: NCI-60 one-dose screen, 48 h (100 = growth as untreated, 0 = no growth, -100 = all killed)
- TEST_CONTEXT: 10 µM unless noted
The panel holds about 83,000 compounds, 20% with a hit somewhere; the sample as a whole holds those more often.
Please assign rule not met whenever growth is at or above 90%, and rule met whenever it is below.

COMPOUND: O=C1/C(=C/c2ccc(Cl)cc2)CN(C(=O)CCN2CCC(=NO)CC2)C/C1=C\c1ccc(Cl)cc1
LABEL_CLASS: rule met

COMPOUND: N#Cc1ccc(N2Cc3ccccc3OC3=C2C(=O)c2c(O)ccc(O)c2C3=O)cc1
LABEL_CLASS: rule met

COMPOUND: C=C1CCC2C(C)(CO)C(O)CCC2(C)C1C/C=C1/C(=O)OCC1Oc1ccccc1C (stereo not given)
LABEL_CLASS: rule not met

COMPOUND: Cn1c(=O)c2[nH]c(C3CC=CCC3)nc2n(C)c1=O (stereo not given)
LABEL_CLASS: rule not met
